MEASURED TARGET: Alpha-1A adrenergic receptor (Homo sapiens); also: assay procedure not described here
Sequence (P35348 whole entry): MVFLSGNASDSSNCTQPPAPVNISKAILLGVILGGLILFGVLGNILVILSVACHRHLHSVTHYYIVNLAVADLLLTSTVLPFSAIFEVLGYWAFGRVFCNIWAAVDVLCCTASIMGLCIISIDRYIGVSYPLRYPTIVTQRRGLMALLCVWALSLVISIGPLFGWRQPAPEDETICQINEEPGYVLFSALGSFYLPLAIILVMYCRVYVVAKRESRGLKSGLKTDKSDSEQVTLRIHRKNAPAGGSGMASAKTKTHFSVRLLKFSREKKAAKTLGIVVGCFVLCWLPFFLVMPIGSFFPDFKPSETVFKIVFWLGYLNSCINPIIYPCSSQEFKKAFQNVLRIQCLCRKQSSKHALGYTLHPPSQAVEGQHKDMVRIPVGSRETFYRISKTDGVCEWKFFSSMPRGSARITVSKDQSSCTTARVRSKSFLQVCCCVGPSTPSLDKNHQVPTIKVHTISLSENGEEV
Format: functional, cell-based
Entries and their AC50 values follow.

// below: answered molecules
# lookup: AC50 of Cc1cc2c(OCC(CNC(C)(C)C)OC(=O)c3ccccc3)cccc2[nH]1 (stereo not given)
> 30 µM

If you can, please state the reported AC50 value of `CC[C@H](C)C(=O)O[C@H]1C[C@H](O)C=C2C=C[C@H](C)[C@H](CC[C@@H](O)C[C@@H](O)CC(=O)O)[C@H]21` .
> 30 µM

Reported AC50 for CC(=O)N(CC(O)CO)c1c(I)c(C(=O)NCC(O)CO)c(I)c(C(=O)NCC(O)CO)c1I (stereo not given) [IOHEXOL] : what is it?
> 30 µM

Next:
Which AC50 is reported for this molecule? `O=C(O)CCCc1ccccc1`
> 30 µM

Which AC50 is reported for this molecule? `COc1ccc2c(c1)c(CC(=O)OCC(=O)O)c(C)n2C(=O)c1ccc(Cl)cc1`
> 30 µM

# lookup: AC50 of `Cc1c(O)c(=O)ccn1C`
> 30 µM
